System: SF-295 CNS
Assay: NCI tumour cell line growth inhibition, 48 h
TGI values, listed per item

Some solved cases for reference:
{"columns": ["Compound", "TGI"],
 "data": [
  ["C[Si]1(C)C(c2ccccc2)=CC2C(c3ccccc3)(c3ccccc3)OC21c1ccccc1 (stereo not drawn)", "> 100 µM"],
  ["CC(C)(Oc1ccc(Cl)cc1)C(=O)NC1C2CC3CC1CC(NS(C)(=O)=O)(C3)C2 (stereo not drawn)", "> 100 µM"]
]}

Input: Value lookup for TGI; key = Cc1nn(C(=O)Cc2ccccc2)c2c1C(c1ccc3ccccc3c1O)SC(N)=N2 (stereo not drawn)
Output: > 100 µM

---

TGI values, listed per item
Tested on: OVCAR-3 ovarian
Test: NCI tumour cell line growth inhibition, 48 h

Some solved cases for reference:
{"columns": ["Compound", "Subject Of Test", "TGI"],
 "data": [
  ["CC(SC(=S)Nc1cccc(F)c1)C(=O)O (stereo unspecified)", "OVCAR-3 ovarian", "> 100 µM"],
  ["c1cc(N2CCN(c3ccc(C4=NCCN4)cc3)CC2)ccc1C1=NCCN1", "OVCAR-3 ovarian", "> 86 µM"],
  ["COC(=O)C1CCC(=O)C(Sc2ccccc2)C1 (stereo unspecified)", "OVCAR-3 ovarian", "> 100 µM"]
]}

Input: Value lookup for TGI; key = C=CC(O)C#Cc1cnc(OC)nc1OC (stereo unspecified)
Output: > 100 µM

Input: Value lookup for TGI; key = Nc1[nH]c(=O)nc2c1cnn2Cc1ccccc1
Output: > 100 µM

Input: Value lookup for TGI; key = O=C1C(c2ccccc2)=C(c2ccccc2)C(c2ccc(-c3ccc(C4=C(c5ccccc5)C(=O)C(c5ccccc5)=C4c4ccccc4)cc3)cc2)=C1c1ccccc1
Output: > 100 µM
